Reference for the values: patent US9776972B2

pIC50 values, listed per item
molecular target: human PRMT1 (Homo sapiens); construct: GST-tagged PRMT1; made in house; host or cells: High Five insect cells (baculovirus); test: PRMT1 Biochemical Assay (3H-SAM Flashplate, peptide substrate); settings: single experiment or average of multiple experiments
Sequence (Q99873 with tags, fused parts or gaps): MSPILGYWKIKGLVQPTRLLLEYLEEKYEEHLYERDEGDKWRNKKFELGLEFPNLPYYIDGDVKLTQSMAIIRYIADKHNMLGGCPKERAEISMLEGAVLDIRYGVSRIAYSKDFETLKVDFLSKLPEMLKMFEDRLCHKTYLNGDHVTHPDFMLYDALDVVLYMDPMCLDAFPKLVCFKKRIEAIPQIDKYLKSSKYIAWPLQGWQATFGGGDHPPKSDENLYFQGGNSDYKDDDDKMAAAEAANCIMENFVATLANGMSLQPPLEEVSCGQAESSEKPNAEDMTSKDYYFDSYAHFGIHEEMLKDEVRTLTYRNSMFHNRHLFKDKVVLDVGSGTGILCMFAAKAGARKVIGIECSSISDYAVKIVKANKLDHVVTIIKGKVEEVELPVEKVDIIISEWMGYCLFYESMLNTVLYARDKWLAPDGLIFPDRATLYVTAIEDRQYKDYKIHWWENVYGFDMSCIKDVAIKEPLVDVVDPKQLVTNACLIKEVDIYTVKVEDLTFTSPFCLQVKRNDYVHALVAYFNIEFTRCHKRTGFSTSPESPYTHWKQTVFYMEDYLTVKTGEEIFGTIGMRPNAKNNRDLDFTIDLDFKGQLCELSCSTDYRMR
Where a name gives a salt, the structure may show the parent alone.
Field pIC50 (float): negative decimal logarithm of the concentration in molar.

[
  {
    "molecule": "CN(CCN)Cc1c[nH]nc1-c1ccc(N2CCNCC2)cc1",
    "pIC50": 7.02
  },
  {
    "molecule": "Cc1cc(Cl)ccc1-c1n[nH]cc1CN(C)CCN",
    "pIC50": 7.61
  },
  {
    "molecule": "CC(C)Oc1cccc(-c2n[nH]cc2CN(C)CCN)c1",
    "pIC50": 6.83
  },
  {
    "molecule": "CNCCN(C)Cc1c[nH]nc1-c1cc(Cl)ccc1OC",
    "pIC50": 5.50
  },
  {
    "molecule": "CNCCN(C)Cc1cnn(CC(=O)OC)c1-c1ccc(OC(C)C)cc1",
    "pIC50": 6.96
  },
  {
    "molecule": "CNCCN(C)Cc1cn(CCOC)nc1-c1ccc(OC(C)C)cc1 [Compound 253, hydrochloride]",
    "pIC50": 6.95
  }
]

Enquiry: Which measured pIC50 value corresponds to CNCCN(C)Cc1c[nH]nc1-c1ccc(OC(COC)CC(C)C)cc1 (centres unmarked) ?
Return: 7.74

Enquiry: Which measured pIC50 value corresponds to CN(CCN)Cc1c[nH]nc1-c1ccc(C2CCOCC2)cc1 ?
Return: 8.23

Enquiry: Which measured pIC50 value corresponds to CCNC(=O)c1cccc(-c2n[nH]cc2CN(C)CCN)c1 ?
Return: 6.17

Enquiry: Which measured pIC50 value corresponds to CNCCN(C)Cc1c[nH]nc1-c1ccc(OC)cc1OC ?
Return: 6.72

Enquiry: Which measured pIC50 value corresponds to CNCCN(C)Cc1c[nH]nc1-c1ccc(OCC2CCOCC2)cc1 ?
Return: 7.87

Enquiry: Which measured pIC50 value corresponds to CN(CCN)Cc1c[nH]nc1-c1ccc(OCCCO)cc1 ?
Return: 7.94

Enquiry: Which measured pIC50 value corresponds to CNCCN(C)Cc1n[nH]cc1-c1cc(CC(C)C)cc(CC(C)C)c1 ?
Return: 7.28

====

molecular target: Human CARM1 (PRMT4) (Homo sapiens, UniProt Q86X55); construct: Flag-CARM1-His; made in house; host or cells: HEK 293F cells (BacMam baculovirus); assay: CARM1 Biochemical Assay (3H-SAM Flashplate, peptide substrate)
Where a name gives a salt, the structure may show the parent alone.
propertyMeasured: IC50

Enquiry: Which measured IC50 value corresponds to CNCCN(C)Cc1cnn(C)c1-c1ccc(OC(C)C)cc1 [Compound 244, hydrochloride] ?
Return: < 100 nM

====

IC50 values, listed per item
Biological target: Human CARM1 (PRMT4) (Homo sapiens)
Construct: Flag-CARM1-His; made in house; host or cells: HEK 293F cells (BacMam baculovirus)
Sequence (Q86X55 1-585 isoform Q86X55-1): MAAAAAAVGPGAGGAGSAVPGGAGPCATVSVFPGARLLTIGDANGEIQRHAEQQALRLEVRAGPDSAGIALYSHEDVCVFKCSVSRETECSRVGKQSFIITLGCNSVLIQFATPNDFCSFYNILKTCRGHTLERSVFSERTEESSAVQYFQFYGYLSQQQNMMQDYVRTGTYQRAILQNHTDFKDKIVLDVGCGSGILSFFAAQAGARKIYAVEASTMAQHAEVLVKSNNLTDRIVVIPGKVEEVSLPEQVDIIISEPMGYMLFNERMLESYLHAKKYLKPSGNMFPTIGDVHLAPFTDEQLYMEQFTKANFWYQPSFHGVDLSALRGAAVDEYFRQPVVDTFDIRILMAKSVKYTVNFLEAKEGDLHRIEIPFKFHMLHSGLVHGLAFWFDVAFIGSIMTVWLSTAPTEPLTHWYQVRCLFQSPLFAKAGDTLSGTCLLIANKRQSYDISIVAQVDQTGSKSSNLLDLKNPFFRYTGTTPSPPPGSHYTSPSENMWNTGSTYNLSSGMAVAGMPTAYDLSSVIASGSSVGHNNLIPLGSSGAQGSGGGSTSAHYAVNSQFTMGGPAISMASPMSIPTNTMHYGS
Assay: CARM1 Biochemical Assay (3H-SAM Flashplate, peptide substrate)
Settings: single experiment or average of multiple experiments
Where a name gives a salt, the structure may show the parent alone.
Please respond with the number in µM and leave the unit unwritten.

Enquiry: Which measured IC50 value corresponds to CN(CCN)Cc1c[nH]nc1-c1ccccc1F [Compound 72] ?
Return: 7.04

Enquiry: Which measured IC50 value corresponds to CCCc1ccc(-c2n[nH]cc2CN(C)CCNC)cc1 [Compound 20] ?
Return: 0.278

Enquiry: Which measured IC50 value corresponds to CN(CCN)Cc1n[nH]cc1-c1ccc(F)cc1 [Compound 69] ?
Return: 3.92

Enquiry: Which measured IC50 value corresponds to CNCCN(C)Cc1cnn(C)c1-c1ccc(OC(C)C)cc1 [Compound 244, hydrochloride] ?
Return: 0.0925

Enquiry: Which measured IC50 value corresponds to Cc1cc(F)ccc1-c1n[nH]cc1CN(C)CCN [Compound 152] ?
Return: 6.87

Enquiry: Which measured IC50 value corresponds to Cc1ccc(-c2n[nH]cc2CN(C)CCN)c(F)c1 [Compound 108] ?
Return: 1.53

Enquiry: Which measured IC50 value corresponds to CNCCN(C)Cc1cn(C2CC2)nc1-c1ccc(F)cc1 [Compound 13] ?
Return: 2.24

Enquiry: Which measured IC50 value corresponds to COc1ccc(-c2n[nH]cc2CN(C)CCN)c(F)c1 [Compound 107] ?
Return: 2.86

Enquiry: Which measured IC50 value corresponds to CNCCN(C)Cc1cn(Cc2cccnc2)nc1-c1ccc(OC(C)C)cc1 [Compound 246] ?
Return: 2.43
